Please consider the recorded IC50 for Carnitine O-palmitoyltransferase 2, mitochondrial (Rattus norvegicus) in what follows.

Below, 5 molecules whose answers are already recorded.
MOLECULE: COc1ccc(Cl)cc1CN1C(=O)COc2ccc(C(=O)Nc3nc(CC(=O)O)cs3)cc21
DATA_VALUE: > 100 µM
--
MOLECULE: COc1ccc(Cl)cc1S(=O)(=O)N1COCc2ccc(C(=O)Nc3ccc(CC(=O)O)cc3)cc21
DATA_VALUE: > 100 µM
--
MOLECULE: O=C1Nc2ccc(-c3noc([C@H]4CCCCN4C(=O)COc4ccccc4)n3)cc2CO1
DATA_VALUE: > 100 µM
--
MOLECULE: COc1ccc(Cl)cc1S(=O)(=O)N1CC(C)c2ccc(C(=O)Nc3ccc(C(=O)O)c(F)c3)cc21 (stereo unspecified)
DATA_VALUE: 3.88 µM
--
MOLECULE: Cn1cnc(Br)c1-c1noc([C@H]2CCCCN2C(=O)COc2ccccc2)n1
DATA_VALUE: > 100 µM

Indicate its recorded IC50; the molecule in question is "COc1ccc(Cl)cc1S(=O)(=O)N1COc2ccc(C(=O)Nc3ccc(C(=O)O)c(F)c3)cc21"
20.5 µM

Indicate its recorded IC50; the molecule in question is "CC(=O)Nc1cccc(-c2nc([C@H]3CCCCN3C(=O)COc3ccccc3)no2)c1"
> 100 µM

Indicate its recorded IC50; the molecule in question is "Cc1cc(C)cc(S(=O)(=O)N2CCSc3ccc(C(=O)Nc4ccc(C(=O)O)cc4)cc32)c1"
2.62 µM

Indicate its recorded IC50; the molecule in question is "COc1ccc(Cl)cc1S(=O)(=O)N1CCOc2c(Cl)cc(C(=O)Nc3nc(CC(=O)O)cs3)cc21"
> 100 µM

Indicate its recorded IC50; the molecule in question is "COc1ccc(Cl)cc1S(=O)(=O)N1CCSc2ccc(C(=O)Nc3ccc(C(=O)O)c(Cl)c3)cc21"
10.6 µM

Indicate its recorded IC50; the molecule in question is "COc1ccc(Cl)cc1S(=O)(=O)N1CCCCc2ccc(C(=O)Nc3nc(CC(=O)O)cs3)cc21"
> 100 µM

====

Assay: SUPPLEMENTARY: Lyophilisation Solubility Assay (LYSA)
Format: physicochemical
Conditions: read-out: Kinetic_solubility
MEASURED_ENDPOINT: solubility kinetic (µg/mL)

STRUCTURE_SMILES_STRING: NNC(=O)c1cccc(-c2n[nH]c([C@H]3CCCCN3C(=O)COc3ccccc3)n2)c1
solubility kinetic [µg/mL]: 87

STRUCTURE_SMILES_STRING: Cc1cc(-c2noc([C@H]3CCCCN3C(=O)COc3ccccc3)n2)no1
solubility kinetic [µg/mL]: 141

STRUCTURE_SMILES_STRING: Nc1cc(-c2nc([C@H]3CCCCN3C(=O)COc3ccccc3)no2)ccn1
solubility kinetic [µg/mL]: 61

STRUCTURE_SMILES_STRING: O=C(COc1ccccc1)N1CCCC[C@@H]1c1noc(-c2cnnc3ccccc23)n1
solubility kinetic [µg/mL]: 18

[I] CCN(c1cc(C(=O)Nc2ncc(CC(=O)O)s2)cc2c1OCO2)S(=O)(=O)c1cc(Cl)ccc1OC
[II] CS(=O)(=O)c1ccc(-c2csc([C@H]3CCCCN3C(=O)COc3ccccc3)n2)cc1
Sort I and II by solubility kinetic descending and give the first. Please respond with the label that marks your chosen entry.
I
